biological target: hDOR (Homo sapiens, UniProt P41143); test: Radioligand binding assay (Eurofins Cerep), [3H]DADLE displacement
Sequence (P41143 whole entry): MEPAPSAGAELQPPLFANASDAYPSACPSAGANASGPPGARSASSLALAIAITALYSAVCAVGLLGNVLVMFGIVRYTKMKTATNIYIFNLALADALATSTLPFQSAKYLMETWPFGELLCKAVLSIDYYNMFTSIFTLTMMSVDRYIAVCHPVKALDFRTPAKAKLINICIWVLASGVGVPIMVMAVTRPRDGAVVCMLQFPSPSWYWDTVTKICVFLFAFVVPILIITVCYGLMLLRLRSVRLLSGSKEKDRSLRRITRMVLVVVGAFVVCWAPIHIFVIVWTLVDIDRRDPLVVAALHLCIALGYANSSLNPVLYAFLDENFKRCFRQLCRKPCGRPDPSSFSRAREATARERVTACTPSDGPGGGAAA
pKi: −log10 of the molar value.
value.type: pKi

Please fill in: pKi reported for `CC[C@@H]1CN2CCc3c([nH]c4cccc(OC)c34)[C@@H]2C[C@@H]1/C(=C\OC)C(=O)N1CCNCC1` = < 5.00

* * *

Can you tell me pKi for the items I'm about to list?
target: UniProt P35372; assay: Radioligand binding assay (Eurofins Cerep), [3H]DAMGO displacement; conditions: read-out: Ki at hMOR
Sequence (P35372 whole entry): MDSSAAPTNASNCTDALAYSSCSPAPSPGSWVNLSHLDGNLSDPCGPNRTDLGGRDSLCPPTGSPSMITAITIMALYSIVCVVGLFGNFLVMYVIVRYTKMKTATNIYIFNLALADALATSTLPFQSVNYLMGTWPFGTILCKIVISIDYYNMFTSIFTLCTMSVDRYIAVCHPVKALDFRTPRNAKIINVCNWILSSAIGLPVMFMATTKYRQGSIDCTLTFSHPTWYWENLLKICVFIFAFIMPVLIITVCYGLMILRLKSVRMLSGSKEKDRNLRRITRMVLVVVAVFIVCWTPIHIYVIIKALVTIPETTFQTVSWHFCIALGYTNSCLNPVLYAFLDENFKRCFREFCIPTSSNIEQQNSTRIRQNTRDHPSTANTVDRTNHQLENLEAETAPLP
Answer as the number alone; pKi is minus log10 of concentration in mol/L.

Please fill in: pKi reported for `CC[C@@H]1CN2CCc3c([nH]c4cccc(OC)c34)[C@@H]2C[C@@H]1/C(=C\OC)C(=O)N(C)C1CCCCC1` = 7.09

Please fill in: pKi reported for `CC[C@@H]1CN2CCc3c([nH]c4cccc(OC)c34)[C@@H]2C[C@@H]1/C(=C\OC)C(=O)N1CCCCC1` = 6.89

Please fill in: pKi reported for `CCCN(C)C(=O)/C(=C/OC)[C@H]1C[C@H]2c3[nH]c4cccc(OC)c4c3CCN2C[C@H]1CC` = 6.78

Please fill in: pKi reported for `CC[C@@H]1CN2CC[C@@]3(O)C(=Nc4cccc(OC)c43)[C@@H]2C[C@@H]1/C(=C\OC)C(=O)N(C)C` = 6.96

Please fill in: pKi reported for `CC[C@@H]1CN2CCc3c([nH]c4cccc(OC)c34)[C@@H]2C[C@@H]1/C(=C\OC)C(=O)N(C)C1CCCC1` = 7.17
